# experiment: Refractive index of compounds (NMP solutions, extrapolated)
# Format: physicochemical
# condition set: compound diluted with NMP, three concentrations, Abbe refractometer, 589 nm (D line)

molecule | Liquid refractive index
c1ccc2c(c1)[nH]c1ccc(-c3cccc4c3[nH]c3ccccc34)cc12 [Synthesis Example 1, 1,3′-bicarbazole] | 1.76
c1ccc2c(c1)[nH]c1ccc(-c3ccc4[nH]c5ccccc5c4c3)cc12 [Comparative Example 2, 3,3′-bicarbazole, reference compound] | 1.765
C=CC(=O)n1c2ccccc2c2cc(-c3cccc4c5ccccc5n(C(=O)C=C)c34)ccc21 [Example 1, 9,9′-diacryloyl-1,3′-bicarbazole] | 1.723
C=Cn1c2ccccc2c2cc(-c3cccc4c5ccccc5n(C=C)c34)ccc21 [Example 2, 9,9′-divinyl-1,3′-bicarbazole] | 1.735
C=Cn1c2ccccc2c2ccccc21 [Comparative Example 1, 9-vinylcarbazole, reference compound] | 1.674
C=CC(=O)OCCn1c2ccccc2c2cc(-c3cccc4c5ccccc5n(CCOC(=O)C=C)c34)ccc21 [Example 3] | 1.664

====

# experiment: Solubility in o-phenylphenoxyethyl acrylate
# Assay type: physicochemical
# Parameters: key: A: Soluble; B: Insoluble
# condition set: compound concentration 50% by mass
reported metric: Solubility, 50 mass %

compound | val
C=CC(=O)n1c2ccccc2c2cc(-c3cccc4c5ccccc5n(C(=O)C=C)c34)ccc21 | B
c1ccc2c(c1)[nH]c1ccc(-c3cccc4c3[nH]c3ccccc34)cc12 [Synthesis Example 1, 1,3′-bicarbazole] | B
c1ccc2c(c1)[nH]c1ccc(-c3ccc4[nH]c5ccccc5c4c3)cc12 [Comparative Example 2, 3,3′-bicarbazole, reference compound] | B
C=Cn1c2ccccc2c2cc(-c3cccc4c5ccccc5n(C=C)c34)ccc21 | A
C=CC(=O)OCCn1c2ccccc2c2cc(-c3cccc4c5ccccc5n(CCOC(=O)C=C)c34)ccc21 | A
C=Cn1c2ccccc2c2ccccc21 [Comparative Example 1, 9-vinylcarbazole, reference compound] | B

====

# experiment: Solubility in o-phenylphenoxyethyl acrylate
# Assay type: physicochemical
# Design: key: A: Soluble; B: Insoluble
# condition set: compound concentration 10% by mass

molecule | Solubility, 10 mass %
C=Cn1c2ccccc2c2cc(-c3cccc4c5ccccc5n(C=C)c34)ccc21 | A
C=CC(=O)OCCn1c2ccccc2c2cc(-c3cccc4c5ccccc5n(CCOC(=O)C=C)c34)ccc21 | A
c1ccc2c(c1)[nH]c1ccc(-c3ccc4[nH]c5ccccc5c4c3)cc12 [Comparative Example 2, 3,3′-bicarbazole, reference compound] | B
c1ccc2c(c1)[nH]c1ccc(-c3cccc4c3[nH]c3ccccc34)cc12 [Synthesis Example 1, 1,3′-bicarbazole] | A
C=CC(=O)n1c2ccccc2c2cc(-c3cccc4c5ccccc5n(C(=O)C=C)c34)ccc21 | A
C=Cn1c2ccccc2c2ccccc21 [Comparative Example 1, 9-vinylcarbazole, reference compound] | A
